# measurement_target: human sucrase (Homo sapiens)
# Construct: an in vitro assay using Caco-2/TC7 cell extracts containing sucrase, maltase and isomaltase was conducted; endogenous in cells; host or cells: Caco-2/TC7 (human colon adenocarcinoma), 21 days post-confluence, crude cell-free extract
# measurement_description: Sucrase inhibition in Caco-2/TC7 cell-free extract, sucrose as substrate, HPAE-PAD
# Type: biochemical
# cond: Caco-2/TC7 CFE, sucrose; mean ± SEM, n = 3
Marks after values point to notes of the source that are not given here.
quantity_measured: 15% inhibitory concentration (IC15) Sucrase

molecule | readout_value
O=c1c(O)c(-c2ccc(O)cc2)oc2cc(O)cc(O)c12 [Kaempferol, kaempferol] | 14.2 ± 3.7 ^c µM
O=C(O[C@@H]1Cc2c(O)cc(O)cc2O[C@@H]1c1cc(O)c(O)c(O)c1)c1cc(O)c(O)c(O)c1 [EGCG, (−)-epigallocatechin-3-gallate, reference compound] | 41.2 ± 6.0 ^d µM
C[C@H]1O[C@H](O[C@H]2[C@H](O)[C@@H](O)[C@@H](O[C@H]3[C@H](O)[C@@H](O)C(O)O[C@@H]3CO)O[C@@H]2CO)[C@H](O)[C@@H](O)[C@@H]1N[C@H]1C=C(CO)[C@@H](O)[C@H](O)[C@H]1O (stereo partly drawn) [Acarbose, acarbose, reference compound] | 0.32 ± 0.05 ^a µM
O=c1c(O)c(-c2ccccc2)oc2cc(O)cc(O)c12 [Galangin, galangin] | 12.7 ± 2.1 ^c µM
O=c1c(O)c(-c2ccc(O)c(O)c2)oc2cc(O)cc(O)c12 [Quercetin, quercetin] | 40.5 ± 5.1 ^d µM
O=c1c(O)c(-c2ccc(O)c(O)c2)oc2cc(O)c(O)c(O)c12 [Quercetagetin, quercetagetin] | 3.5 ± 1.1 ^b µM

---

Reported percent inhibition of isomaltase at maximum concentration tested values are given for each entry in this list.
# measurement_target: human isomaltase (Homo sapiens, UniProt P14410)
# Construct: an in vitro assay using Caco-2/TC7 cell extracts containing sucrase, maltase and isomaltase was conducted; endogenous in cells; host or cells: Caco-2/TC7 (human colon adenocarcinoma), 21 days post-confluence, crude cell-free extract
# Sequence (P14410 whole entry): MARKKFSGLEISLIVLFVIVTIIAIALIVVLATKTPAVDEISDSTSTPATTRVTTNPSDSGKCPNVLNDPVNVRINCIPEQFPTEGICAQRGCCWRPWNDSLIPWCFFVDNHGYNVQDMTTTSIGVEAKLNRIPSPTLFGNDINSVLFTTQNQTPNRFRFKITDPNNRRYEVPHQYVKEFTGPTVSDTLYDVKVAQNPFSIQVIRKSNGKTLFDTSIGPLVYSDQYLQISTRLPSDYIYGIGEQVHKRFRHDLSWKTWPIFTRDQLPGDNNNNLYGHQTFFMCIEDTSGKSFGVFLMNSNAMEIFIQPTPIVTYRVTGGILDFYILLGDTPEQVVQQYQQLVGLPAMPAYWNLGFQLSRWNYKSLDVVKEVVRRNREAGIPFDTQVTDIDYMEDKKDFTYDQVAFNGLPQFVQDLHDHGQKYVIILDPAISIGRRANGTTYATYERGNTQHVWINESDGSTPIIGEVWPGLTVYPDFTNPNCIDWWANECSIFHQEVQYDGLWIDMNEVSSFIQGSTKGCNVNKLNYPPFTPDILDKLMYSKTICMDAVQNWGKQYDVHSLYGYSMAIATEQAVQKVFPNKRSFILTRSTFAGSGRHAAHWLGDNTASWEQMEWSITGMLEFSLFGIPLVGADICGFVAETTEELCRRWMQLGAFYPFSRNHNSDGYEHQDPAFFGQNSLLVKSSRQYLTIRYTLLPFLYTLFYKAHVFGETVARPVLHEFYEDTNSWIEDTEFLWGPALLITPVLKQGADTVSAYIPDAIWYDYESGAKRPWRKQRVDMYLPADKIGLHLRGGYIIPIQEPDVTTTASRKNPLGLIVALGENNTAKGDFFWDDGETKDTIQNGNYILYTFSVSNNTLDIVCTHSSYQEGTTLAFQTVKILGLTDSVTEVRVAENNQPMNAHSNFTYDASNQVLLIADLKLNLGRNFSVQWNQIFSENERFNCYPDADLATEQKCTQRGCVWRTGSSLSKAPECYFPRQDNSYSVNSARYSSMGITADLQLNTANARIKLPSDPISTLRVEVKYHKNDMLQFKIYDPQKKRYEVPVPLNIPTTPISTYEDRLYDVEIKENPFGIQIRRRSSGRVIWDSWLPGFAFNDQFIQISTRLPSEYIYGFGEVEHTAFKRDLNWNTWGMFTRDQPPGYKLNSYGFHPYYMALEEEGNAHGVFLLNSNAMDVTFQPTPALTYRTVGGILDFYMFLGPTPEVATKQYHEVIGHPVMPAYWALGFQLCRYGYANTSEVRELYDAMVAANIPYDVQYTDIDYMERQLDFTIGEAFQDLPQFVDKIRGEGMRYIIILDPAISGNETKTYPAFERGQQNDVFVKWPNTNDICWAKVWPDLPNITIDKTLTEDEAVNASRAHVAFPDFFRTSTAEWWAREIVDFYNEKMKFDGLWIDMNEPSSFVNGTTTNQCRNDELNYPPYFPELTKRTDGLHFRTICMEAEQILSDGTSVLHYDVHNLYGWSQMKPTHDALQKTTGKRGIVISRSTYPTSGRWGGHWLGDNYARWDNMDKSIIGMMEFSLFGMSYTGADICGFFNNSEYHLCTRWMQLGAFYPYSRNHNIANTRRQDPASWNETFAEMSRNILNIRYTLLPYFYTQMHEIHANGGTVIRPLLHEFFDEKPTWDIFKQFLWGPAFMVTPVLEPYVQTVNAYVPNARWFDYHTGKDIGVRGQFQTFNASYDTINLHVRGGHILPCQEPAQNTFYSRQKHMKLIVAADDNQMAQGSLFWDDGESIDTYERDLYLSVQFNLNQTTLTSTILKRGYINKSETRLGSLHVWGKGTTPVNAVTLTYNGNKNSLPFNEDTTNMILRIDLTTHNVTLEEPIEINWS
# measurement_description: Isomaltase inhibition in Caco-2/TC7 cell-free extract, isomaltose as substrate, HPAE-PAD
# Assay type: biochemical
# cond: maximum concentration: acarbose 200, EGCG 1500, quercetin 200, quercetagetin 50, kaempferol 40, galangin 25 µM
quantity_measured: percent inhibition of isomaltase at maximum concentration tested (%)

compound | measurement_target | unit_name | readout_value
O=C(O[C@@H]1Cc2c(O)cc(O)cc2O[C@@H]1c1cc(O)c(O)c(O)c1)c1cc(O)c(O)c(O)c1 [EGCG, (−)-epigallocatechin-3-gallate, reference compound] | human isomaltase (Homo sapiens, UniProt P14410) | % | 71
C[C@H]1O[C@H](O[C@H]2[C@H](O)[C@@H](O)[C@@H](O[C@H]3[C@H](O)[C@@H](O)C(O)O[C@@H]3CO)O[C@@H]2CO)[C@H](O)[C@@H](O)[C@@H]1N[C@H]1C=C(CO)[C@@H](O)[C@H](O)[C@H]1O (some centres unmarked) [Acarbose, acarbose, reference compound] | human isomaltase (Homo sapiens, UniProt P14410) | % | 96

---

# measurement_target: human sucrase (Homo sapiens, UniProt P14410)
# Construct: an in vitro assay using Caco-2/TC7 cell extracts containing sucrase, maltase and isomaltase was conducted; endogenous in cells; host or cells: Caco-2/TC7 (human colon adenocarcinoma), 21 days post-confluence, crude cell-free extract
# measurement_description: Sucrase inhibition in Caco-2/TC7 cell-free extract, sucrose as substrate, HPAE-PAD
# Assay type: biochemical
# cond: Caco-2/TC7 CFE, sucrose; mean ± SEM, n = 3
Marks after values point to notes of the source that are not given here.
quantity_measured: 25% inhibitory concentration (IC25) Sucrase

compound | readout_value
O=C(O[C@@H]1Cc2c(O)cc(O)cc2O[C@@H]1c1cc(O)c(O)c(O)c1)c1cc(O)c(O)c(O)c1 [EGCG, (−)-epigallocatechin-3-gallate, reference compound] | 72.9 ± 10.3 ^d µM
O=c1c(O)c(-c2ccc(O)c(O)c2)oc2cc(O)cc(O)c12 | 69.5 ± 8.2 ^d µM
C[C@H]1O[C@H](O[C@H]2[C@H](O)[C@@H](O)[C@@H](O[C@H]3[C@H](O)[C@@H](O)C(O)O[C@@H]3CO)O[C@@H]2CO)[C@H](O)[C@@H](O)[C@@H]1N[C@H]1C=C(CO)[C@@H](O)[C@H](O)[C@H]1O (stereo partly drawn) [Acarbose, acarbose, reference compound] | 0.60 ± 0.09 ^a µM
O=c1c(O)c(-c2ccc(O)c(O)c2)oc2cc(O)c(O)c(O)c12 | 6.6 ± 1.8 ^b µM
O=c1c(O)c(-c2ccccc2)oc2cc(O)cc(O)c12 | 20.8 ± 5.5 ^c µM
O=c1c(O)c(-c2ccc(O)cc2)oc2cc(O)cc(O)c12 | 30.3 ± 8.2 ^c µM
